Across several studies, compounds have been characterized by their pKi on Vasopressin V2 receptor (Homo sapiens, UniProt P30518); a selection follows.
Expect pKi as a plain number equal to -log10 of the molar concentration.

Which measured pKi value corresponds to Cc1ccn(-c2ccc(C(=O)N3CCC(F)(F)/C(=C\C(=O)NCc4nccs4)c4ccccc43)c(Cl)c2)n1 ?
7.96

Param item: Cc1ccn(-c2ccc(C(=O)N3CCC(F)(F)/C(=C\C(=O)NCCO)c4ccccc43)c(C(F)(F)F)c2)n1
7.11

Param item: Cc1ccn(-c2ccc(C(=O)N3CCC(F)(F)/C(=C\C(=O)NCc4cnccn4)c4ccccc43)c(Cl)c2)n1
7.85

Param item: Cc1nnc(-c2ccc(-c3ccccc3)cc2)n1-c1ccccc1OCCCCCCN1CCN(C)CC1
5.75

Param item: Cc1cccc(OCc2ccc(C(=O)N3CCN(C)CC3)cc2)c1-n1c(C)nnc1-c1ccc(-c2ccccc2)cc1
5.07

Param item: Cc1ccn(-c2ccc(C(=O)N3CCC(F)(F)/C(=C\C(=O)NCc4cccc(N)n4)c4ccccc43)c(Cl)c2)n1
8.00

Param item: CN[C@@H](CCS(C)(=O)=O)C(=O)N[C@H]1C[C@H]2CC[C@]1(CS(=O)(=O)N1CCN(c3ccccc3C)CC1)C2(C)C
6.74

Param item: O[C@H]1Cc2cc(Cl)ccc2-n2c(nnc2[C@H]2CC[C@H](Oc3ccccn3)CC2)C1
6.05

Param item: Cc1ccccc1C(=O)Nc1ccc(C(=O)N2CCC[C@@H](O)c3c(C)cccc32)cc1 (atropisomer aR)
5.75

Param item: Cc1ccn(-c2ccc(C(=O)N3CCC(F)(F)/C(=C\C(=O)NCC(N)=O)c4ccccc43)c(Cl)c2)n1
7.96

Param item: Cc1ccn(-c2ccc(C(=O)N3CCC(F)(F)/C(=C\C(=O)NCc4cccc(N(C)C)n4)c4ccccc43)c(Cl)c2)n1
7.96

Param item: O=C(CCC(=O)NC1CCCN(C(=O)c2ccc(NC(=O)c3ccccc3-c3ccccc3)cc2)c2ccccc21)NCc1cn(CCOCCOCCOCCNC(=S)Nc2ccc(-c3c4ccc(=O)cc-4oc4cc(O)ccc34)c(C(=O)O)c2)nn1 (centres undefined)
7.58

Param item: Cc1ccn(-c2ccc(C(=O)N3CCC(F)(F)/C(=C\C(=O)NCc4nc5ccccc5s4)c4ccccc43)c(Cl)c2)n1
7.96

Param item: COc1cccc(CNC(=O)/C=C2/c3ccccc3N(C(=O)c3ccc(-n4ccc(C)n4)cc3Cl)CCC2(F)F)n1
7.80

Param item: CCN(CC)c1ccc2c(-c3ccc(S(=O)(=O)NCCOCCOCCOCCn4cc(CNC(=O)CCC(=O)NC5CCCN(C(=O)c6ccc(NC(=O)c7ccccc7-c7ccccc7)cc6)c6ccccc65)nn4)cc3S(=O)(=O)[O-])c3ccc(=[N+](CC)CC)cc-3oc2c1 (centres undefined)
8.40

Param item: Cc1nnc(-c2ccc(-c3ccccc3)cc2)n1-c1ccccc1OCCCCC1CCNCC1
5.35

Param item: Cc1ccn(-c2ccc(C(=O)N3CCC(F)(F)/C(=C\C(=O)NCc4ccccc4)c4ccccc43)c(Cl)c2)n1
7.72

Param item: CC(C)c1ccn(-c2ccc(C(=O)N3CCC(F)(F)/C(=C\C(=O)NCc4ccccn4)c4ccccc43)c(Cl)c2)n1
7.74

Param item: CC[C@H](C)[C@@H]1C(=O)N[C@H](C2Cc3ccccc3C2)C(=O)N1[C@@H](C(=O)N1CCOCC1)c1ccc(C)nc1C
5.40

Param item: Cc1ccc2c(c1)CC(O)Cc1nnc([C@H]3CC[C@H](Oc4ccccn4)CC3)n1-2 (some centres undefined)
5.97

Param item: COc1ccc(S(=O)(=O)N2c3ccc(Cl)cc3[C@](O)(c3ccccc3Cl)[C@@H]2C(=O)N2CCC[C@H]2C(N)=O)cc1OC
6.75

Param item: Cc1ccccc1C(=O)Nc1ccc(C(=O)N2CCC[S@@+]([O-])c3ccccc32)cc1 (stereo in doubt; (+))
5.91

Param item: Cc1nnc(-c2ccc(-c3ccccc3)cc2)n1-c1ccccc1OCCCCCC(=O)N1CCN(C)CC1
5.18

Param item: C[C@@H]1CCN(c2ccc(C(=O)N3CCC(F)(F)/C(=C\C(=O)NCCO)c4ccccc43)c(Cl)c2)C1
7.89

Param item: O[C@@H]1Cc2cc(Cl)ccc2-n2c(nnc2[C@H]2CC[C@H](Oc3ccccn3)CC2)C1
6.70

* * *

Across several studies, compounds have been characterized by their Ki on Vasopressin V2 receptor (Homo sapiens, UniProt P30518); a selection follows.
Report the value in nM with no unit label.

Which measured Ki value corresponds to CC(C)C[C@@H]1C(=O)N[C@H](C2Cc3ccccc3C2)C(=O)N1[C@@H](C(=O)N(C)C)c1ccc(F)cc1F ?
39.8

Param item: Cc1ccn(-c2ccc(C(=O)N3CCC(F)(F)/C(=C\C(=O)NCc4ccncn4)c4ccccc43)c(Cl)c2)n1
11

Param item: Cc1nnc(-c2ccc(-c3ccccc3)cc2)n1-c1ccccc1OCc1ccc(C(=O)N2CCN(C)CC2)cc1
585

Param item: Cc1ccccc1C(=O)Nc1ccc(C(=O)N2CCCSc3ccccc32)cc1
21

Param item: CCc1ccn(-c2ccc(C(=O)N3CCC(F)(F)/C(=C\C(=O)NCc4ccccn4)c4ccccc43)c(Cl)c2)n1
21

Param item: C[C@H]1CCN(c2ccc(C(=O)N3CCC(F)(F)/C(=C\C(=O)NCCO)c4ccccc43)c(C(F)(F)F)c2)C1
14

Param item: O=C(Nc1ccc(C(=O)N2C[C@@H]3C4CCC(CC4)N3Cc3cc(Cl)ccc32)cc1)c1ccccc1Cl
520

* * *

Across several studies, compounds have been characterized by their pKi on Vasopressin V2 receptor (Homo sapiens, UniProt P30518); a selection follows.
Expect pKi as a plain number equal to -log10 of the molar concentration.

Which measured pKi value corresponds to CCN1/C(=C/C=C/C=C/C2=[N+](CC)c3ccc(S(=O)(=O)[O-])cc3C2(C)C)C(C)(CCCC(=O)NCCOCCOCCOCCOCCOCCOCCn2cc(CNC(=O)CCC(=O)NC3CCCN(C(=O)c4ccc(NC(=O)c5ccccc5-c5ccccc5)cc4)c4ccccc43)nn2)c2cc(S(=O)(=O)O)ccc21 (centres undefined) ?
7.85

Param item: Cc1ccccc1C(=O)Nc1ccc(C(=O)N2CCC[C@H](O)c3cccc(C)c32)cc1
7.27

Param item: O=C(Nc1ccc(C(=O)N2C[C@@H]3C4CCC(C4)N3Cc3cc(Cl)ccc32)cc1)c1ccccc1C(F)(F)F (some centres undefined)
8.05

Param item: Cc1cccc(OCc2ccc(C(=O)N3CCC(N4CCCCC4)CC3)cc2)c1-n1c(C)nnc1-c1ccc(-c2ccccc2)cc1
5.72

Param item: Cc1ccccc1C(=O)Nc1ccc(C(=O)N2CCCC(O)c3ccccc32)cc1 (racemic)
8.12

Param item: Cc1nnc(-c2ccc(-c3ccccc3)cc2)n1-c1ccccc1OCCCCCCCCN1CCN(C)CC1
5.05

Param item: Cc1ccn(-c2ccc(C(=O)N3CCC(F)(F)/C(=C\C(=O)O)c4ccccc43)c(Cl)c2)n1
7.60

Param item: Cc1ccccc1C(=O)Nc1ccc(C(=O)N2CCC[C@H](O)c3ccccc32)cc1
8.31

Param item: CCN(CC)c1ccc2c(-c3ccc(S(=O)(=O)NCCCCC(=O)NC4CCCN(C(=O)c5ccc(NC(=O)c6ccccc6-c6ccccc6)cc5)c5ccccc54)cc3S(=O)(=O)[O-])c3ccc(=[N+](CC)CC)cc-3oc2c1 (centres undefined)
8.12

Param item: Cc1ccccc1C(=O)Nc1ccc(C(=O)N2CCC[C@H](O)c3c(C)cccc32)cc1
7.34

Param item: Cc1nnc(-c2ccc(-c3ccccc3)cc2)n1-c1ccccc1OCCCCCCN1CCC(N2CCCCC2)CC1
6.01

Param item: Cc1nnc(-c2ccc(-c3ccccc3)cc2)n1-c1ccccc1OCCCC1CCNCC1
5.13

Param item: Cc1ccccc1C(=O)Nc1ccc(C(=O)N2CCCC(O)c3c(C)cccc32)cc1 (racemic)
6.80

Param item: CCN(CC)c1ccc2c(-c3ccc(S(=O)(=O)[O-])cc3S(=O)(=O)NCCOCCOCCOCCn3cc(CNC(=O)CCC(=O)NC4CCCN(C(=O)c5ccc(NC(=O)c6ccccc6C)cc5)c5ccccc54)nn3)c3ccc(=[N+](CC)CC)cc-3oc2c1 (centres undefined)
6.73

Param item: Cc1ccccc1C(=O)Nc1ccc(C(=O)N2CCC[C@@H](O)c3cccc(C)c32)cc1
6.85

Param item: Cc1cc(C(=O)N2CCCCc3ccccc32)ccc1CNC(=O)Nc1c(F)cccc1F
6.70

Param item: Cc1nnc(-c2ccc(-c3ccccc3)cc2)n1-c1ccccc1OCCCN1CCN(C)CC1
4.99

Param item: CC(C)C[C@@H]1C(=O)N[C@H](C2Cc3ccccc3C2)C(=O)N1[C@@H](C(=O)NC(C)C)c1ccc(F)cc1F
6.20

Param item: CCCNC(=O)/C=C1/c2ccccc2N(C(=O)c2ccc(-n3ccc(C)n3)cc2Cl)CCC1(F)F
7.74

Param item: C[C@H]1CCN(c2ccc(C(=O)N3CCC(F)(F)/C(=C\C(=O)NCCO)c4ccccc43)c(Cl)c2)C1
7.85

Param item: Cc1nnc(-c2ccc(-c3ccccc3)cc2)n1-c1ccccc1OCCCCCN1CCN(C)CC1
5.31

Param item: CC(C)C[C@@H]1C(=O)N[C@H](C2Cc3ccccc3C2)C(=O)N1[C@@H](C(=O)NC(C)C)c1ccc2occc2c1
5.30

Param item: Cc1ccc(F)cc1C(=O)Nc1ccc(C(=O)N2Cc3cccn3Cc3ccccc32)c(Cl)c1
7.05
